Hello, the source for this data is PubChem BioAssay AID1159580, in case you need it.

# assayOverview: chemical genetic growth profiling, strain panel (AID 1159580);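 further: tested at 20 µM; growth read once vehicle control cultures reached saturation at 30 °C; 1 = growth at the plate median or of vehicle wells; lower values mean less growth of the strain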
# conditionDescription: S. cerevisiae deletion strains, growth OD, locus YKR026C, strain gcn3, hits give low values
Hit rate of the full screen: of about 5,500 compounds, about 2,000 (36%) were called active. Another 18% or so got no clear call; they are omitted. This is one part of the list.
Each entry below lists one item and its recorded normalized growth value.
measuredEndpoint: normalized growth

INSERT INTO assay_data (compound, endpointvalue) VALUES
  ('CN[C@@H]1[C@H](OC2[C@H](O[C@H]3[C@H](O)[C@@H](O)[C@H](N=C(N)N)[C@@H](O)[C@@H]3N=C(N)N)O[C@@H](C)[C@]2(O)C=O)O[C@@H](CO)[C@H](O)[C@H]1O (some centres not stated)', 1),
  ('CN(C)CCC(c1ccc(Br)cc1)c1ccccn1 (configuration not stated)', 0.986),
  ('COc1cc([C@@H]2c3cc4c(cc3[C@H](OC(C)=O)[C@H]3COC(=O)[C@@H]23)OCO4)cc(OC)c1OC', 0.997),
  ('CN1CCN(C2=Nc3ccccc3Oc3ccc(Cl)cc32)CC1', 0.983),
  ('COc1c2ccoc2nc2c(OC)c(OCC(O)C(C)(C)O)ccc12 (configuration not stated)', 1.02),
  ('COc1cc([C@H]2Oc3cc([C@H]4Oc5cc(O)cc(O)c5C(=O)[C@@H]4O)ccc3O[C@@H]2CO)ccc1O', 1.01),
  ('CC(=O)O[C@H]1C[C@@H](OC(C)=O)C(C)(C)C2CC(=O)[C@]3(C)C(CC[C@@]4(C)[C@H](c5ccoc5)OC(=O)[C@H]5O[C@]543)[C@]21C (some centres not stated)', 0.993),
  ('Cc1cc(O)c(C=O)c2c1C(=O)Oc1c(COC(=O)/C=C/C(=O)O)c(O)c(C(=O)O)c(C)c1O2', 0.985),
  ('Clc1ccc2c(c1)C(N1CCNCC1)=Nc1ccccc1O2', 0.983),
  ('CN(C)N=Nc1nc[nH]c1C(N)=O', 0.975),
  ('Nc1ccncc1', 0.984),
  ('NCC(CC(=O)O)c1ccc(Cl)cc1 (configuration not stated)', 0.995),
  ('CN(C)C(=O)Nc1ccc(Cl)c(Cl)c1', 0.993),
  ('O=c1cc(-c2cc(O)c(O)c(O)c2)oc2cc(O)cc(O)c12', 1.01),
  ('c1ccc2nc(N3CCNCC3)ccc2c1', 0.981),
  ('COC(=O)CCCOc1ccc(Cl)cc1Cl', 0.946),
  ('CN(C)CCOC(=O)C(c1ccccc1)C1(O)CCCC1 (configuration not stated)', 0.973),
  ('Nc1ccn(C2O[C@H](CO)[C@@H](O)[C@H]2O)c(=O)n1 (some centres not stated)', 1),
  ('Nc1cc(-c2ccncc2)c[nH]c1=O', 0.947),
  ('C/C=C/C(=O)N(CC)c1ccccc1C', 1.01),
  ('C=C[C@H]1CN2CC[C@H]1C[C@@H]2[C@H](O)c1ccnc2ccccc12', 0.991),
  ('O=c1cc(-c2ccccc2)oc2c(O)c(O)ccc12', 0.993);

---

# assayOverview: chemical genetic growth profiling, strain panel (AID 1159580)
# conditionDescription: S. cerevisiae deletion strains, growth OD, locus YML016C, strain PPZ1, hits give low values
Screen size: about 5,500 compounds; about 2,000 (36%) were called active. Another 18% or so got no clear call; they are omitted. Some of the results follow.
measuredEndpoint: normalized growth

INSERT INTO measurements (molecule, endpointvalue) VALUES
  ('CC1(C)C(=O)C=C[C@@]2(C)C1CC(=O)[C@@]1(C)C3=CC(=O)O[C@@H](c4ccoc4)[C@]3(C)CCC12 (stereo partly specified)', 1),
  ('C[C@H](CCC(=O)O)[C@H]1CCC2C3C(CC[C@@]21C)[C@@]1(C)CC[C@@H](O)C[C@H]1C[C@H]3O (stereo partly specified)', 1.02),
  ('Clc1ccc2c(c1)C(N1CCNCC1)=Nc1ccccc1O2', 0.981),
  ('NC(N)=O', 0.999),
  ('CN1CCN(C2=Nc3ccccc3Oc3ccc(Cl)cc32)CC1', 0.981),
  ('COc1c2ccccc2nc2occc12', 0.975);

---

# assayOverview: chemical genetic growth profiling, strain panel (AID 1159580)
# conditionDescription: S. cerevisiae deletion strains, growth OD, locus YBL105C, strain PKC1
Among all 5,500 compounds or so, about 2,000 (36%) were called active. Roughly 18% stayed inconclusive and do not appear here. Rule as the data show it: active = normalized growth mostly below about 0.91 (no sharp cut-off); inconclusive = no clear call, values can overlap the other calls; inactive = mostly above about 0.92. This is one part of the list.
Labels: Yes for active, No for inactive

INSERT INTO measurements (molecule, classification) VALUES
  ('O=C(Nc1cccc2ccccc12)c1ccccc1O', 'Yes'),
  ('O=C(CCn1c(=O)oc2ccccc21)Sc1ccc(C(F)(F)F)cc1', 'No'),
  ('C/C(=N/Nc1ccccc1)c1cc(Cl)cc(Cl)c1O', 'No'),
  ('N#Cc1ccc(NC(=O)Nc2cccc3ccccc23)cc1', 'No'),
  ('O=C(Nc1ccc(F)c(Cl)c1)c1ccccc1O', 'Yes'),
  ('O=C(Nc1ccc(Cl)cc1)O/N=C\c1ccn(-c2ccccc2)n1', 'No'),
  ('COc1ccc(CC2CCC(=NOC(=O)c3ccc(C(C)(C)C)cc3)CC2)cc1 (configuration not stated)', 'No'),
  ('O=C1/C(=C/c2ccc(C(F)(F)F)cc2)COc2ccccc21', 'No'),
  ('CSC(=NNc1ccccc1)NC(=O)c1c(Cl)cccc1Cl', 'No'),
  ('CS(=O)(=O)c1sc(C(=O)Sc2ccc(Cl)cc2)c2c1C=CCC2', 'Yes'),
  ('COc1ccc(CC2CCC(=NOC(=O)c3c(Cl)cccc3Cl)CC2)cc1 (configuration not stated)', 'Yes'),
  ('CC1C/C(=N/Nc2ccc(Br)cc2)c2cc(Cl)ccc2S1 (configuration not stated)', 'Yes');

---

# assayOverview: chemical genetic growth profiling, strain panel (AID 1159580);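 further: tested at 20 µM; growth read once vehicle control cultures reached saturation at 30 °C; 1 = growth at the plate median or of vehicle wells; lower values mean less growth of the strain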
# conditionDescription: S. cerevisiae deletion strains, growth OD, locus YLR058C, strain SHM2
In all, about 5,500 compounds went through this assay and about 2,000 (36%) were called active. Another 18% or so got no clear call; they are omitted. Rule as the data show it: active = normalized growth mostly below about 0.91 (no sharp cut-off); inconclusive = no clear call, values can overlap the other calls; inactive = mostly above about 0.92. This is one part of the list.
Labels: 1 (active), -1 (inactive)

INSERT INTO results (compound, classification) VALUES
  ('NS(=O)(=O)c1cc2c(cc1Cl)NC(C1CC3C=CC1C3)NS2(=O)=O (centres undefined)', -1),
  ('Cc1nc2sccn2c(=O)c1CCN1CCC(=C(c2ccc(F)cc2)c2ccc(F)cc2)CC1', 1),
  ('CCN(CCCc1ccccc1)CCCc1ccccc1', -1),
  ('CC(=O)N=c1sc(S(N)(=O)=O)nn1C', -1),
  ('CC12CC3CC(C)(C1)CC(N)(C3)C2', -1),
  ('NNCCc1ccccc1', -1),
  ('NC(Cc1ccc(F)cc1)C(=O)O (centres undefined)', -1),
  ('CC(=O)Nc1nnc(S(N)(=O)=O)s1', 1),
  ('COc1cc2c(cc1O)C(Cc1ccc(O)cc1)N(C)CC2 (centres undefined)', -1);

---

# assayOverview: chemical genetic growth profiling, strain panel (AID 1159580);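 further: tested at 20 µM; growth read once vehicle control cultures reached saturation at 30 °C; 1 = growth at the plate median or of vehicle wells; lower values mean less growth of the strain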
# conditionDescription: S. cerevisiae deletion strains, growth OD, locus YDL134C, strain PPH21, hits give low values
Screen size: about 5,500 compounds; about 2,000 (36%) were called active. Inconclusive results (about 18%) are left out. The list shows a part of the results.
measuredEndpoint: normalized growth

INSERT INTO results (chemicalstring, measuredendpoint, endpointvalue) VALUES
  ('NNC(=O)c1ccccc1O', 'normalized growth', 0.988),
  ('S=P(N1CC1)(N1CC1)N1CC1', 'normalized growth', 1),
  ('CN(C(=O)CN(CCO)CC(=O)N(C)C(C)(C)Cc1ccccc1)C(C)(C)Cc1ccccc1', 'normalized growth', 0.983),
  ('CC(=O)Nc1ccccc1', 'normalized growth', 1.02);

---

# assayOverview: chemical genetic growth profiling, strain panel (AID 1159580);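 further: tested at 20 µM; growth read once vehicle control cultures reached saturation at 30 °C; 1 = growth at the plate median or of vehicle wells; lower values mean less growth of the strain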
# conditionDescription: S. cerevisiae deletion strains, growth OD, locus YKR001C, strain vps1, hits give low values
Hit rate of the full screen: of about 5,500 compounds, about 2,000 (36%) were called active. Roughly 18% stayed inconclusive and do not appear here. The list shows a part of the results.
measuredEndpoint: normalized growth

INSERT INTO assay_data (compound, endpointvalue) VALUES
  ('O=c1cc(-c2ccccc2)oc2cc(O)cc(O)c12', 0.813),
  ('CCN(CC)CCOC(=O)C(c1ccccc1)c1ccccc1', 1),
  ('CCOC(=O)[C@H](CCc1ccccc1)N[C@@H](C)C(=O)N1Cc2ccccc2C[C@H]1C(=O)O', 0.986),
  ('O=c1cc(-c2cc(O)c(O)c(O)c2)oc2cc(O)cc(O)c12', 0.986),
  ('CCCCCC1C(=O)CCC1CC(=O)O (stereo unspecified)', 0.987),
  ('c1ccc2c(c1)CN1CCCC1=N2', 0.98);
